Data origin, for the record: patent US12528777B2

# assay.remarks: Plasma stability assay
# Assay type: in vitro ADME, human
# setup.conditions: 1 μM, 37° C., 120 min, LC-MS/MS
quantity.kind: Mean % remaining at 2 hrs in human Plasma

| compound | measured.value |
| --- | --- |
| COCCn1c(C2CCCCC2)nc2ccc(NC(=O)Nc3cccc(C(C)=O)c3)cc2c1=O [Compound 123] | 48.5% |
| COCCn1c(-c2ccncc2)nc2ccc(NC(=O)Nc3cccc(C(C)=O)c3)cc2c1=O [Compound 219] | 73.9% |
| COCCn1cnc2ccc(NC(=O)Nc3cccc(C(C)=O)c3)c(Br)c2c1=O [Compound 73] | 10.3% |
| COCCn1c(C(=O)N2CCCCC2)nc2ccc(NC(=O)Nc3cccc(C(C)=O)c3)cc2c1=O [Compound 330a] | 45.8% |
| CC(=O)c1cccc(NC(=O)Nc2ccc3ncn(CC(=O)Nc4ccccc4F)c(=O)c3c2)c1 [Compound 253] | 67.2% |
| COCC(C)n1cnc2ccc(NC(=O)Nc3cccc(C(C)=O)c3)cc2c1=O (stereo not drawn) [Compound 179] | 20.6% |
| CC(C)[N+](C)(CCOC(=O)C1c2ccccc2Oc2ccccc21)C(C)C [Propantheline, reference compound] | 1.7% |
| COCCn1c(-c2ccccn2)nc2ccc(NC(=O)Nc3cccc(C(C)=O)c3)cc2c1=O [Compound 211] | 110.3% |
| CC(=O)c1cccc(NC(=O)Nc2ccc3ncn(CCCN4CCOCC4)c(=O)c3c2)c1 [Compound 139] | 55.50% |
| COCCn1cnc2ccc(NC(=O)Nc3cccc(C(C)=O)c3)cc2c1=O [Compound 9] | 16.9% |
| COCCn1c(-c2cccnc2)nc2ccc(NC(=O)Nc3cccc(C(C)=O)c3)cc2c1=O [Compound 215] | 80.70% |
| COCCn1c(CN2CCCCC2)nc2ccc(NC(=O)Nc3cccc(C(C)=O)c3)cc2c1=O [Compound 238] | 98.1% |
